- Test system: PA-003, blaVIM
- Assay notes: MIC / checkerboard with ATM
- Assay type: cell-based, P. aeruginosa
- Test context: Pseudomonas aeruginosa; PA-003; Table S2; read-out: MIC value
Endpoint: MIC (mg/L)
Enter your answer as a number in mg/L; do not include the unit.

C[C@@H](O)[C@H]1C(=O)N2C(C(=O)O)=C(S[C@@H]3CN[C@H](C(=O)N(C)C)C3)[C@H](C)[C@H]12 [MEM, meropenem, reference compound] ... 16

Okay, now this molecule:
Ask: Endpoint output: MIC of CC(C)(O/N=C(\C(=O)N[C@@H]1C(=O)N2C(C(=O)[O-])=C(C[n+]3ccccc3)CS[C@H]12)c1csc(N)n1)C(=O)O [CAZ, ceftazidime, reference compound] . Value?
Reply: 4
